molecular target: hOCT2 (Homo sapiens, UniProt O15244); test: ASP+ fluorescent substrate uptake inhibition at OCT2; format: cell-based
Sequence (O15244 whole entry): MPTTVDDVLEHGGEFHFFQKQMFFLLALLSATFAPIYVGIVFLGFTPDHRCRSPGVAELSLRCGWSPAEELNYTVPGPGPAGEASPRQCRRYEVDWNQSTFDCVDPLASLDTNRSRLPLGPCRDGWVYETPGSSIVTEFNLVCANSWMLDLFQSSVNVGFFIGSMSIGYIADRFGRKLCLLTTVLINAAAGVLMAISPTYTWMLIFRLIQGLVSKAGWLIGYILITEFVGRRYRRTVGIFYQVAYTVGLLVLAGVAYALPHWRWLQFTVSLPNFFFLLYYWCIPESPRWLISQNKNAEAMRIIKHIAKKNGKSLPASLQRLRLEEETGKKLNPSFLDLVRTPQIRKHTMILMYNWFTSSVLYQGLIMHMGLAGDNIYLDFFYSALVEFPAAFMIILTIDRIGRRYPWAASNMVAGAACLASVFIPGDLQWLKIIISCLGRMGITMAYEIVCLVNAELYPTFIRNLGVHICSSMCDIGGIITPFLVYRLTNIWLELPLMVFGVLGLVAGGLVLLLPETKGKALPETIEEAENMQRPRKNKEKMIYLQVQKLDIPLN
pIC50: −log10 of the molar value.
observation_type: pIC50

| smiles_str | target | quantitative_result |
| --- | --- | --- |
| CC[C@H]1C[C@@H]2C[C@H]3c4[nH]c5ccccc5c4CCN(C2)[C@@H]13 | hOCT2 (Homo sapiens, UniProt O15244) | 5.70 |
